System: ECHCG
procedureSummary: Pre-emergence herbicidal action against ECHCG
Assay type: in vivo, Echinochloa crus-galli
protocolConditions: Echinochloa crus-galli, 504 h, 320 g/ha

{"columns": ["entrySmiles", "endpointUnit", "pest or weed control at 320 g/ha"],
 "data": [
  ["CC(=O)NC(=O)c1c(C(F)(F)F)ccc(C(=O)Nc2nnc(C)o2)c1Cl", "%", 90],
  ["CCCn1nnnc1NC(=O)c1ccc(C(F)(F)F)c(C(N)=O)c1Cl", "%", 100],
  ["Cn1nnnc1NC(=O)c1ccc(C(F)(F)F)c(C(N)=O)c1Cl", "%", 100],
  ["CCn1nnnc1NC(=O)c1ccc(C(F)(F)F)c(C(N)=O)c1Cl", "%", 100],
  ["CCn1nnnc1NC(=O)c1ccc(C(F)(F)F)c(C(=O)NC)c1Cl", "%", 100],
  ["CCCn1nnnc1NC(=O)c1ccc(C(F)(F)F)c(C(=O)NC)c1Cl", "%", 100],
  ["CCNC(=O)c1c(C(F)F)ccc(C(=O)Nc2nnnn2CC)c1Cl", "%", 100]
]}

###

Overview of recorded pest or weed control at 80 g/ha for various molecules
System: STEME
procedureSummary: Post-emergence herbicidal action against STEME
Assay type: in vivo, Stellaria media
protocolConditions: Stellaria media, 504 h, 80 g/ha
parameterMeasured: pest or weed control at 80 g/ha

{"columns": ["molecule", "studyTarget", "endpointResult"],
 "data": [
  ["CNC(=O)c1c(C(F)(F)F)ccc(C(=O)Nc2nnnn2C)c1SC [Example 1-81]", "STEME", "90%"],
  ["CCCn1nnnc1NC(=O)c1ccc(C(F)(F)F)c(C(=O)NC)c1Cl [Example 3-129]", "STEME", "100%"],
  ["CNC(=O)c1c(C(F)F)ccc(C(=O)Nc2nnnn2C)c1Cl [Example 1-147]", "STEME", "90%"],
  ["CCn1nnnc1NC(=O)c1ccc(C(F)(F)F)c(C(=O)NC)c1Cl [Example 2-129]", "STEME", "100%"],
  ["Cn1nnnc1NC(=O)c1ccc(C(F)(F)F)c(C(N)=O)c1Cl [Example 1-338]", "STEME", "90%"]
]}

###

Test system: MATIN
procedureSummary: Post-emergence herbicidal action against MATIN
Format: in vivo, Matricaria inodora
protocolConditions: Tripleurospermum inodorum, 504 h, dosage 5 g/ha
Overview of recorded pest or weed control at 5 g/ha for various compounds

{"columns": ["compound", "pest or weed control at 5 g/ha, %"],
 "data": [
  ["CCCNC(=O)c1c(C(F)(F)F)ccc(C(=O)Nc2nnnn2C)c1C [Example 1-32]", 80],
  ["Cc1c(C(=O)Nc2nnnn2C)ccc(C(F)F)c1C(=O)NC(C)C [Example 1-346]", 80],
  ["Cc1c(C(=O)Nc2nnnn2C)ccc(C(F)(F)F)c1C(=O)NC(C)C [Example 1-33]", 80],
  ["CCNC(=O)c1c(C(F)(F)C(F)(F)F)ccc(C(=O)Nc2nnnn2C)c1Cl [Example 1-166]", 80],
  ["Cn1nnnc1NC(=O)c1ccc(C(F)F)c(C(=O)NC2CC2)c1C1CC1 [Example 1-306]", 90],
  ["CCNC(=O)c1c(C(F)F)ccc(C(=O)Nc2nnnn2C)c1C1CC1 [Example 1-305]", 90],
  ["CCNC(=O)c1c(C(F)(F)F)ccc(C(=O)Nc2nnnn2CC)c1C [Example 2-26]", 80],
  ["CC(C)NC(=O)c1c(C(F)(F)F)ccc(C(=O)Nc2nnnn2C)c1Cl [Example 1-137]", 80],
  ["CCNC(=O)c1c(C(F)F)ccc(C(=O)Nc2nnnn2C)c1SC [Example 1-88]", 80],
  ["CCn1nnnc1NC(=O)c1ccc(C(F)(F)F)c(C(=O)NC2CC2)c1C1CC1 [Example 2-288]", 80]
]}
